biological target: T1, hPD-L1-his (human, UniProt Q9NZQ7 19-238); assay: BLI (ForteBIO), hPD-L1-his on anti-Penta-HIS sensor
T1 construct: extracellular domain; also called 携带his标签的人PD-L1胞外区重组蛋白; not shown: his tag
T1 sequence (Q9NZQ7 19-238): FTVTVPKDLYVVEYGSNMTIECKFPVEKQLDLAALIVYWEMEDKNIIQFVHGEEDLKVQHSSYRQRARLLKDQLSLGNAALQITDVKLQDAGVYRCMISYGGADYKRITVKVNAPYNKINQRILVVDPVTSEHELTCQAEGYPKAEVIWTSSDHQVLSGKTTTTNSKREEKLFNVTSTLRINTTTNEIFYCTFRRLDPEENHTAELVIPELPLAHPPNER
pKd: −log10 of the molar value.
measurement_label: pKd

>>> test_result("176L6H5 (antibody, V domains shown, Whole humanized mAb expressed in 293 cells; detected with anti-human IgG; also called 抗人PD-L1人源化抗体176L6H5) VH: EVQLQESGPGLVKPSETLSLTCAVYGDSITSGYWNWIRKPPGKGLEYMGYISYTGSTYQNPSLKSRITFSRDTSKNQYYLKLSSVTAADTATYYCARSRAWIRTYFDYWGQGTLVTVSS VL: EIVLTQSPDFQSVTPKEKVTITCSVSSSISSSNLHWYQQKPDQSPKLLIYGTSNLASGVPSRFSGSGSGTDFTLTINSLEAEDAATYYCQQWSSYPLTFGQGTKLEIKR")
10.52
>>> test_result("176L4H3 (antibody, V domains shown, Whole humanized mAb expressed in 293 cells; detected with anti-human IgG; also called 抗人PD-L1人源化抗体176L4H3) VH: QVQLQESGPGLVKPSETLSLTCAVYGDSITSGYWNWIRKPPGKKLEYIGYISYTGSTYQNPSLKSRITFSRDTSKNQYYLKLSSVTAADTAVYYCARSRAWIRTYFDYWGQGTLVTVSS VL: DIQMTQSPSSLSASVGDRVTITCSVSSSISSSNLHWYQQKPGKAPKPWIYGTSNLASGVPSRFSGSGSGTDYTLTISSLQPEDFATYYCQQWSSYPLTFGQGTKLEIKR")
10.10
